Tested on: HOP-92 NSCLC
PROCEDURE_SUMMARY: NCI-60 one-dose screen, 48 h
PROTOCOL_CONDITIONS: 10 µM unless noted
About 83,000 compounds went through this panel and 20% of them were active in at least one assay; those are over-represented in the sample as a whole. Active and inactive are the calls of the source. Rule for the calls: active = growth percent below 10; inactive = the rest.
Answer with one of the outcomes yes for active, no for inactive

Take a look at these entries with their results.
{"COMPOUND": "Cn1cc(-c2cc3nc(-c4c[nH]c5ccc(Br)cc45)cc(N)n3n2)c2ccccc21", "TARGET_ENTITY": "HOP-92 NSCLC", "ASSIGNED_CATEGORY": "yes"}
{"COMPOUND": "CCN(CC)CCOc1ccc(Nc2ncc3cc(-c4ccc(O)c(C#N)c4)c(=O)n(C)c3n2)cc1", "TARGET_ENTITY": "HOP-92 NSCLC", "ASSIGNED_CATEGORY": "yes"}
{"COMPOUND": "COc1ccc(C(=O)/C=C/c2cccnc2)cc1S(N)(=O)=O", "TARGET_ENTITY": "HOP-92 NSCLC", "ASSIGNED_CATEGORY": "no"}
{"COMPOUND": "COc1ccc(-c2ccnc(SCc3cc4cc(Cl)ccc4[nH]c3=O)n2)cc1", "TARGET_ENTITY": "HOP-92 NSCLC", "ASSIGNED_CATEGORY": "yes"}
{"COMPOUND": "N#Cc1ccc(/C=N/NC(=O)c2[nH]c3ccc(Br)cc3c2-c2ccccc2)o1", "TARGET_ENTITY": "HOP-92 NSCLC", "ASSIGNED_CATEGORY": "yes"}

Shift focus to the following entry.
Q: What classification did CC1=C(C(=O)c2ccccc2)C(c2cccc3ccccc23)n2c(nc3ccccc32)N1 (configuration not stated) end up with in this test?
Ans: no

----------
System: SK-MEL-28 melanoma
PROCEDURE_SUMMARY: NCI-60 one-dose screen, 48 h (100 = growth as untreated, 0 = no growth, -100 = all killed)
PROTOCOL_CONDITIONS: 10 µM unless noted
About 83,000 compounds went through this panel and 20% of them were active in at least one assay; those are over-represented in the sample as a whole.
MEASURED_ATTRIBUTE: growth (%)
One number for each entry, in %.

For each entry beneath this line, provide reported growth.
1. Cc1cc(N=C2NC(=O)CS2)n[nH]1
2. COc1ccc(C(=O)/C=C/c2ccc(Oc3nc(Nc4ccc(F)cc4)nc(N(C)C)n3)c(OC)c2)cc1
3. COC1=C[C@]23CCC(=O)N2CCc2cc4c(cc2[C@@H]3[C@@H]1OC(=O)[C@H](C)O)OCO4

Ans:
108
76.7
15.1

----------
System: A549/ATCC NSCLC
PROCEDURE_SUMMARY: NCI-60 one-dose screen, 48 h (100 = growth as untreated, 0 = no growth, -100 = all killed)
PROTOCOL_CONDITIONS: 10 µM unless noted
Compounds without any hit were thinned out: in the full panel of roughly 83,000, 20% have a hit.
Decide using growth: a value greater than or equal to 60% is Fulfilled, a smaller one is Not fulfilled.

{"COMPOUND": "Cc1ccc(-n2c(-c3cc4ccccc4nc3Cl)noc2=O)cc1", "TARGET_ENTITY": "A549/ATCC NSCLC", "ASSIGNED_CATEGORY": "Fulfilled"}

Q: Assess whether reported growth for `O=C(Nc1cccc(-n2cnc3cc(-c4ccc(O)cc4)ccc32)c1)C1CC1` sits at 60% or higher.
Ans: Not fulfilled

Q: Assess whether reported growth for `Cc1ccc(NCC(=O)Cn2cc(COc3ccc(C=Nc4cnc5ccccc5c4)cc3)nn2)cc1` sits at 60% or higher.
Ans: Fulfilled

Q: Assess whether reported growth for `CN(C)c1ccnc(CNCCSC2(c3ccc(C(F)(F)F)cc3)c3ccccc3CCc3ccccc32)c1` sits at 60% or higher.
Ans: Not fulfilled

Q: Assess whether reported growth for `CC(C)CCNC(=O)N/C(N)=N/c1nc2ccccc2s1` sits at 60% or higher.
Ans: Fulfilled

Q: Assess whether reported growth for `COc1ccc(NC(=O)Cn2c(O)c(N=Nc3ccc(S(N)(=O)=O)cc3)c3ccccc32)cc1` sits at 60% or higher.
Ans: Not fulfilled

Q: Assess whether reported growth for COc1cc(C2CC(c3cc(OC)c(OC)c(OC)c3)=NN2C(C)=O)ccc1OCc1ccc(F)cc1 (stereo not drawn) sits at 60% or higher.
Ans: Not fulfilled

Q: Assess whether reported growth for `Cn1cc(-c2nc(N)nnc2-c2c[nH]c3ccc(F)cc23)c2cccnc21` sits at 60% or higher.
Ans: Not fulfilled

----------
System: UACC-257 melanoma
PROCEDURE_SUMMARY: NCI-60 one-dose screen, 48 h (100 = growth as untreated, 0 = no growth, -100 = all killed)
PROTOCOL_CONDITIONS: 10 µM unless noted
Compounds without any hit were thinned out: in the full panel of roughly 83,000, 20% have a hit.
MEASURED_ATTRIBUTE: growth (%)
Answers are plain numbers, in %.

Take a look at these entries with their results.
{"COMPOUND": "COc1cc(C2CC(c3cc(OC)c(OC)c(OC)c3)=Nc3c(N)nc(N)nc3N2)ccc1Oc1nc(NCCO)nc(N2CCOCC2)n1 (stereo unspecified)", "TARGET_ENTITY": "UACC-257 melanoma", "growth / %": 105}
{"COMPOUND": "Cn1cc(-c2nc(N)nnc2-c2c[nH]c3ccc(Br)cc23)c2cc(Br)cnc21", "TARGET_ENTITY": "UACC-257 melanoma", "growth / %": 47.3}
{"COMPOUND": "CN(C)CCn1c2ccccc2c2nc3cc4ccccc4cc3nc21", "TARGET_ENTITY": "UACC-257 melanoma", "growth / %": 18.1}

For each entry beneath this line, provide reported growth.
1. O=c1cc(-c2ccccc2)oc2cc(OCCCC[P+](c3ccccc3)(c3ccccc3)c3ccccc3)cc(O)c12
2. CN(C)c1nc(NCCNS(=O)(=O)c2ccc(C3=Nc4c(N)nc(N)nc4NC(c4ccc(Cl)cc4)C3)cc2)nc(Nc2ccc(F)cc2)n1 (stereo unspecified)
3. CC(=O)Nc1ccc(C(=O)NC(=S)Nc2ccc(S(N)(=O)=O)cc2)cc1
4. Cc1ccc(C(=O)NN2C(=O)/C(=C/C=C/c3ccc([N+](=O)[O-])o3)SC2=S)cc1
5. Cc1cc2nc3c4ccccc4n(CCNCCN(C)C)c3nc2cc1C
6. COc1ccc(-c2cc(C(=O)NCc3ccccc3)nn2-c2ccc(S(C)(=O)=O)cc2)cc1OC
7. CCCCCCn1c(O)c(N=Nc2nc(-c3cc4ccccc4oc3=O)cs2)c2ccccc21

Ans:
1. -91
2. 42.6
3. 95.2
4. -81.5
5. -72.8
6. 105
7. 46.3

Q: Entry under review: `CC(=O)Nc1ccc(-c2cn(-c3cccc(C(=O)Nc4ccc(N5CCN(C)CC5)cc4)c3)nn2)cn1` . Reported growth?
Ans: 100

----------
Please provide measured growth for the entries that follow.
Tested on: SF-539 CNS
PROCEDURE_SUMMARY: NCI-60 one-dose screen, 48 h (100 = growth as untreated, 0 = no growth, -100 = all killed)
PROTOCOL_CONDITIONS: 10 µM unless noted
About 83,000 compounds went through this panel and 20% of them were active in at least one assay; those are over-represented in the sample as a whole. Active and inactive are the calls of the source. How the source made its calls: active means growth percent below 10; inactive means the rest.

Take a look at these entries with their results.
{"MOLECULE": "Cc1c(C(=O)NNC(=O)c2ccc(Cl)cc2)nnn1-c1ccc(Br)cc1", "growth": "94.2% (inactive)"}
{"MOLECULE": "CC(=O)Oc1ccccc1C(=O)[Se]C(=NC1CCCCC1)NC1CCCCC1", "growth": "-98.7% (active)"}
{"MOLECULE": "Cn1cc(-c2cc3nc(-c4cn(C)c5ncc(Br)cc45)cc(N)n3n2)c2cc(Cl)ccc21", "growth": "-96.9% (active)"}
{"MOLECULE": "O=C(N=Nc1c(O)[nH]c2ccc([N+](=O)[O-])cc12)c1ccc2nc(-c3ccccc3)[nH]c2c1", "growth": "6.74% (active)"}

Now look at this entry.
Q: Entry under review: C=C1CC[C@@H]2[C@]3(C)COC(c4cn[nH]c4-c4ccc(OC)cc4)O[C@@H]3CC[C@@]2(C)[C@@H]1C/C=C1/C(=O)OCC1O (stereo not given in full) . Reported growth?
Ans: -87.2% (active)

----------
Test system: HCT-15 colon
PROCEDURE_SUMMARY: NCI-60 one-dose screen, 48 h (100 = growth as untreated, 0 = no growth, -100 = all killed)
PROTOCOL_CONDITIONS: 10 µM unless noted
This is part of a sample that, as a whole, favours compounds with a hit. Of some 83,000 tested, about 20% had one in any assay.
Please provide measured growth for the entries that follow.
Answers are plain numbers, in %.

Take a look at these entries with their results.
{"COMPOUND": "CCCCCCCS(=O)(=O)N1CCCC(C(=O)Nc2nc3ccc(NC(=O)c4ccc(F)c(OC)c4F)cc3s2)C1 (configuration not stated)", "growth / %": 59.6}
{"COMPOUND": "O=C(NN1C(=O)/C(=C/C=C/c2ccc([N+](=O)[O-])o2)SC1=S)c1ccc(Cl)cc1", "growth / %": -75.6}
{"COMPOUND": "COc1ccc(C2CC(c3ccc(S(=O)(=O)NCCNc4nc(Nc5ccc(F)cc5)nc(N(C)C)n4)cc3)=Nc3c(N)nc(N)nc3N2)cc1 (configuration not stated)", "growth / %": 82.7}
{"COMPOUND": "O=C(N/N=C/c1ccc(-c2ccc(O)cc2)o1)c1[nH]c2ccc(Br)cc2c1-c1ccccc1", "growth / %": 2.62}
{"COMPOUND": "COc1ccc(C(=O)/C=C/c2ccc(Cl)c(Cl)c2)cc1S(N)(=O)=O", "growth / %": -37.9}

For each entry beneath this line, provide reported growth.
1. Clc1ccc(-c2ccc(OCCCN3CCN(c4ccncc4)CC3)cc2)cc1
2. C#CCOc1cc(N(CC)CC)ccc1C(C(=O)NC(C)(C)C)N(C(=O)C1CCc2cc(F)ccc2O1)c1ccccc1F (configuration not stated)
3. CCCSc1nc(NCCc2c[nH]c3ccccc23)c(C#N)c(-c2ccc(F)cc2)n1
4. O=C(N=Nc1c(O)[nH]c2ccc([N+](=O)[O-])cc12)c1ccc2nc(-c3ccccc3)[nH]c2c1
5. Clc1cccc(N/N=C/c2c[nH]c3ccc(Br)cc23)n1

Ans:
-66
29.8
18.8
105
22.3

For each entry beneath this line, provide reported growth.
1. O=c1oc2ccccc2cc1-c1csc(N2N=C(c3ccccc3)CC2c2ccc(N3CCOCC3)cc2)n1 (configuration not stated)
2. COc1cc2c(c(OC)c1OC)C(=O)CC(c1cccc(NC(=O)c3cc(N)ccc3Cl)c1)O2 (configuration not stated)
3. CC1=C(C(=O)c2ccccc2)C(c2ccc(-n3cncn3)cc2)n2c(nc3ccccc32)N1 (configuration not stated)
4. NS(=O)(=O)c1ccc(NNC(=O)CCC(=O)c2ccccc2)cc1
5. Cc1ncsc1-c1ccc(CNC(=O)[C@@H]2C[C@@H](O)CN2C(=O)[C@@H](NC(=O)C2(F)CC2)C(C)(C)C)c(OCCOCCOCCOCCOc2nc(Nc3cc(S(C)(=O)=O)ccc3N[C@@H](c3cccc4c3OC(F)(F)O4)c3ncccc3Cl)nc(N3CCNCC3)n2)c1
6. COc1cc2oc(-c3cccc(C(=O)Nc4ccc(Cl)cc4)c3)cc(=O)c2c(OCCNC(=O)[C@H](CCC(=O)OC(C)(C)C)NC(=O)OC(C)(C)C)c1OC
7. Cc1cccc(-c2nc(Nc3cccc(S(N)(=O)=O)c3)c3ccccc3n2)c1
8. COc1cc2nc(SCc3ccccc3)n(-c3ccc(Cl)cc3)c(=O)c2cc1OC

Ans:
96.6
22.3
83.9
104
99.4
100
9.69
33.6

For each entry beneath this line, provide reported growth.
1. Cn1cc(-c2cc(N)n3nc(-c4c[nH]c5ccccc45)cc3n2)c2cccnc21
2. O=C(O)Cn1c(O)c(/C=C2/C=c3cc4c(cc3=NC2=O)OCCO4)sc1=S
3. COc1ccc(/C=C/c2nc3ccccc3c(=O)n2CC(=O)Nc2ccc(Cl)cc2)cc1
4. COc1ccc(NC(=O)[C@H](C)N)cc1C(=O)Nc1cccc(C2CC(=O)c3c(cc(OC)c(OC)c3OC)O2)c1 (some centres not stated)

Ans:
1. -10.2
2. 98.5
3. 75.2
4. 83.9
